# procedure_summary: JC-1 mitochondrial signal, unstimulated myeloma cells – cell-based, JC-1 fluorescence, RPMI8226, 24 h, 100 nL compound, profiling panel (AID 1169); note: test concentration not given here
# measurement_conditions: JC-1 mitochondrial potential fluorescence, higher = more signal
Kind request: treat 0.4 as inclusive, so z-score at 0.4 or higher is criterion met, anything lower is criterion not met.

CC(C)N1C(=O)c2ccccc2[C@](C)(C(=O)O)[C@@H]1c1ccc(CO)cc1; criterion met
O=C1N(Cc2ccccc2)c2ccccc2[C@H]2OC(c3ccc(OCCCO)cc3)=N[C@@]12CCS(=O)(=O)c1ccccc1; criterion not met
[N-]=[N+]=NCc1ccccc1[C@H]1OC(c2ccc(OCCCO)cc2)=N[C@@]1(Cc1ccccc1N=[N+]=[N-])C(=O)N1CCCCC1; criterion not met
COc1ccc(CCNC(=O)[C@@H]2c3ccccc3C(=O)N(Cc3ccccc3C(F)(F)F)[C@H]2c2ccc(CO)cc2)cc1; criterion not met
COc1cc2c(cc1OC)CN(C(=O)[C@@H]1[C@H]3C(=O)O[C@H](c4ccccc4)[C@H](c4ccccc4)N3[C@H](c3ccc(OCCO)cc3)[C@@]13C(=O)Nc1ccc(C#CCCO)cc13)CC2; criterion not met

Q. Please tell me: is the compound COCCOC(=O)N1C(=O)[C@@]2(c3ccccc31)[C@H](c1ccc(OCCO)cc1)N1[C@H](c3ccccc3)[C@H](c3ccccc3)OC(=O)[C@H]1[C@@H]2C(=O)NC[C@H](O)c1ccccc1 at or over 0.4 in terms of z-score?
A. criterion not met

Q. Please tell me: is the compound CCOC(=O)C1=CCC(c2cccc(Cl)c2)O1 (centres undefined) at or over 0.4 in terms of z-score?
A. criterion met

Q. Please tell me: is the compound Cc1ccccc1C(O)C1C=CC2C(=O)N(C)C(=O)C2N1Nc1ccc([N+](=O)[O-])cc1[N+](=O)[O-] (centres undefined) at or over 0.4 in terms of z-score?
A. criterion not met

Q. Please tell me: is the compound COC(=O)C(CC#Cc1ccc2c(c1)[C@]1(C(=O)N2)[C@H](c2ccc(O)cc2)N2[C@H](c3ccccc3)[C@H](c3ccccc3)OC(=O)[C@H]2[C@@H]1C(=O)O)C(=O)OC at or over 0.4 in terms of z-score?
A. criterion met

###

# procedure_summary: plasmodial surface anion channel blockers, osmotic lysis – cell-based, P. falciparum Indochina, OD700, 2 h, primary screen (AID 1155);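 note: lysis reports solute entry through the parasite surface anion channel PSAC; channel blockers reduce lysis of infected cells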
# measurement_conditions: P. falciparum Indochina infected erythrocytes, called active from +8 up or from −8 down
Calls of active or inactive are those of the source.
Return exactly one item of true (active), false (inactive)

COC(=O)[C@@]1(Cc2ccccc2)[C@H]2c3cc(C(=O)N(C)C)n(Cc4ccc(O)c(OC)c4)c3C[C@H]2CN1C(=O)c1ccccc1; false
CCOC(=O)C1=CC[C@@H](c2cccc(Br)c2)N(S(=O)(=O)c2ccc(C)cc2)[C@H]1c1ccc([N+](=O)[O-])cc1; false
O=C(O)[C@]1(CCS(=O)(=O)c2ccccc2)N=C(c2ccc(OCCCO)cc2)O[C@@H]1c1ccccc1; false

Q. // outcome(item) with item = O=C1C[C@@](C(=O)NCc2ccccc2)(c2ccc([N+](=O)[O-])cc2)[C@@H](c2ccc(CO)cc2I)N1C1CCCCC1
A. false

Q. // outcome(item) with item = COCCOC(=O)N1C(=O)[C@@]2(c3cc(C#CCCO)ccc31)[C@H](C(=O)NC[C@H](O)c1ccccc1)[C@H]1C(=O)O[C@H](c3ccccc3)[C@H](c3ccccc3)N1[C@@H]2c1ccccc1OCCO
A. false

Q. // outcome(item) with item = COc1ccc([Si](C)(C)[C@@H]2[C@@H](CC(=O)N(CCO)Cc3ccccc3)O[C@]3(C(=O)N(Cc4ccc(N5CCOC5=O)cc4)c4ccccc43)[C@H]2C)cc1
A. false

Q. // outcome(item) with item = CC(C)NC(=O)[C@@]1(Cc2ccccc2I)c2ccccc2C(=O)N(Cc2ccccc2C(F)(F)F)[C@H]1c1ccc(CO)cc1
A. false
